Tested on: LOX IMVI
Assay: NCI tumour cell line growth inhibition, 48 h
Calls of active or inactive are those of the source. Cut-off read from the data, not from the text of the source: active = GI50 up to about 1.1 µM and inactive = higher.
Outcomes: active, inactive

{"columns": ["molecule", "target.or.test.system", "assigned.category"],
 "data": [
  ["O=C1CS(=O)(=O)C(c2cccc(Oc3ccccc3)c2)N1c1cc(Cl)ccc1Cl (centres undefined)", "LOX IMVI", "inactive"],
  ["CC1(C)[C@@H]2C[C@H]1c1cnc(-c3ccccn3)cc1C2CCCCC[C@@H]1c2cc(-c3ccccn3)ncc2[C@@H]2C[C@H]1C2(C)C (some centres undefined)", "LOX IMVI", "active"],
  ["CC1=NN(C(=O)CC(=O)NC(=O)/C=C\\c2ccccc2)C(=O)C1/N=N/c1ccc([N+](=O)[O-])cc1 (centres undefined)", "LOX IMVI", "inactive"],
  ["CCOC(OC1=C(C#N)CCC1)C(CC)[Se]c1ccccc1 (centres undefined)", "LOX IMVI", "inactive"],
  ["CCCCCc1cc2cc3c(c(O)c2c(=O)[nH]1)C1(CC3)C(=O)c2c(O)c3c(c(O)c2C1=O)C(=O)C(OC)=CC3=O (centres undefined)", "LOX IMVI", "active"],
  ["CCOC(=O)c1cc(NC(=O)N(CCC#N)CCN(C(=O)N[C@@H](Cc2ccccc2)C(=O)N[C@@H](CC(C)C)C(=O)NC)c2ccccc2)ccc1OC", "LOX IMVI", "inactive"],
  ["CCN(CC)CCOC(c1cc(OC)ccc1OC)c1ccc2n1-c1ccccc1OC2 (centres undefined)", "LOX IMVI", "inactive"],
  ["Cc1cc(S(=O)(=O)[N-]/C(=N/S(=O)(=O)c2cc(Cl)sc2Cl)[n+]2ccc(N(C)C)cc2)c(S)cc1Cl", "LOX IMVI", "inactive"],
  ["CSc1ncnc2c1cnn2Cc1cn(CCCCO)nn1", "LOX IMVI", "inactive"],
  ["CC(=O)OCC1OC(n2c(=S)n(-c3ccccc3)c(=O)c3cc(Br)ccc32)C(OC(C)=O)C(OC(C)=O)C1OC(C)=O (centres undefined)", "LOX IMVI", "inactive"],
  ["COC(=O)C1CCC2(C)[C@H](CCC3O[C@]32C)[C@@]1(C)CC(=O)c1ccoc1 (some centres undefined)", "LOX IMVI", "inactive"],
  ["COc1ccc2nc3c(nc2c1)C(C)(C)C=C3c1ccc(Br)cc1", "LOX IMVI", "inactive"],
  ["[N-]=[N+]=NC1C2CC3CC(C2)CC1C3 (centres undefined)", "LOX IMVI", "inactive"],
  ["COc1ccc(-c2oc3cc(OC)c(OC)c(OC)c3c(=O)c2OC)cc1OC", "LOX IMVI", "inactive"],
  ["COc1cc2c(c(OC)c1OC)-c1ccc(SC)c(=O)cc1C(CO)C2 (centres undefined)", "LOX IMVI", "active"],
  ["CCOC(=O)CCC(NC(=O)c1ccc(Oc2nc3ccc(C(F)(F)F)cc3nc2-c2ccccc2)cc1)C(=O)OCC (centres undefined)", "LOX IMVI", "inactive"],
  ["CC(=O)Oc1cc2c(cc1OC(C)=O)[C@H]1CC[C@]3(C)[C@@H](OC(C)=O)CC[C@H]3[C@@H]1CC2", "LOX IMVI", "inactive"],
  ["O=C(O)C1CCCCN1CCc1c[nH]c2ccccc12 (centres undefined)", "LOX IMVI", "inactive"],
  ["CCOC(=O)C(O)Cc1cnc2ccccc2n1 (centres undefined)", "LOX IMVI", "inactive"],
  ["ON[C@@H]1C=C[C@H](n2cnc3c(NC4CC4)ncnc32)C1", "LOX IMVI", "inactive"],
  ["CC(=O)/C(=C/NC(=S)c1cccnc1)C(=O)Nc1ccccc1C", "LOX IMVI", "inactive"],
  ["CN(C)CCNC(=O)c1ccc(Cl)c2ccc(-c3ccccc3)nc12", "LOX IMVI", "inactive"],
  ["CCOC(=O)C(=O)C1C(=O)Nc2ccccc21 (centres undefined)", "LOX IMVI", "inactive"],
  ["O=S(O)c1cc(Cl)cc(Cl)c1OCc1ccccc1", "LOX IMVI", "inactive"]
]}
